# Tested on: MS2 coat protein
# Assay overview: apparent KD of MS2 coat protein, switch ON state; designed switch direction (-1 OFF switch, 1 ON switch): 1; higher = weaker reporter binding
# Run parameters: FMN input: 0 or 200 uM; Eterna round: R93 (includes R88 designs)
Measure: apparent KD of MS2 coat protein (nM)

Chain sequence	Measure	Unit label	Reported
AAAGAAGAAAGUCAGGAUAUGGAUGGGUAAACAUGAGGAUCACCCAUGUAUAAGAAAGAAAGAAACCAGAAGGGACAAAAGAAAA [Artaxerxes III]	apparent KD of MS2 coat protein	nM	34.6
UCAAAACAUGAGGAUCACCCAUGUAGUCUAAAGCGAGGAUAUGGGUUUCUUUAAAGAGUACCAGAAGGCGCCAAAA [Entibi]	apparent KD of MS2 coat protein	nM	23.3
CAGGACGUAGGAUAGGAUAUAUGAAUAAUUACAUGAGGAUCACCCAUGUCCAUUUAUAUGGGAACAUAGAAGGGUUGUGGUUAUG [Mat - Same state - Malcolm Mod - D144]	apparent KD of MS2 coat protein	nM	680
AAUAUAUUAAGUGAGGAUAUCAAGAAAAAAACAUGAGGAUCACCCAUGUGGGAAACACGAUAGGGUGAGAAGGUACUUAAUAUAU [Samwise Clockwise 19 - Jieux - Same State 2]	apparent KD of MS2 coat protein	nM	84.5
AAAGACAUGGUGUAGGAUAUAUUAAUAGUCACAUGAGGAUCACCCAUGUUCAGAUAUCUGAACGAGUAGAAGGACGAUGAAAAAA [SameState2 Malc#4]	apparent KD of MS2 coat protein	nM	251
UUCUCCACUAGCAAGGAUAUCUAAAACUAAACAUGAGGAUCACCCAUGUGACGACCACACGUAUCAGAGAAGGUGCAGGGUGUAU [JR_SS002_Sub308]	apparent KD of MS2 coat protein	nM	45.4
AAAAAAUAAAAAAAGGAUAUAAAAGGUAGUACAUGAGGAUCACCCAUGUUCUACCAAAAAAUAAAAAAGAAGGAAAAAUAAAAAA [SS2: MS2 15]	apparent KD of MS2 coat protein	nM	17.6
AGGAAACAUGAGGAUCACCCAUGUAAAAAUAUGGGAGGAUAUACUAGAAGAAACAAAAUAGUAGAAGGCCUAAAAA [75%, Ex sub1, 26]	apparent KD of MS2 coat protein	nM	17.4

* * *

The following sequences are listed with their measured apparent KD of MS2 coat protein values.
# Tested on: MS2 coat protein
# Assay overview: apparent KD of MS2 coat protein; higher = weaker reporter binding
# Run parameters: Eterna round: R107; input ligand: arginine 13.2 mM

Chain sequence	Unit label	apparent KD of MS2 coat protein
UCAUAUUAGAUAGAUGUAAGGUAUCAUGAUACCAGUAGAUAAUUAUACCCUUGGCAGCAUAACAUGAGGAUCACCCAUGUACAUG [Aa]	nM	20.3
AGGACGGCCGGAAGGAGCGGUACAUGAGGAUCACCCAUGUACCUCUGGGCAUCCGUAGUGUGCCAGGUAGGUCGCCGGUUGCGGG [Veatgema]	nM	11.1
AUAACAUGAGGAUCACCCAUGUAGAGUGAUACCAGACUACGUAAUGUCCCUUGGCAGCACAAGUAAAGUUACGAAUAAUGAUAGA [JR_SSTheophyA_Sub002]	nM	113
GUACAUGAGGAUCACCCAUGUAUAGUUGAAGGAGCGACCGGUGGGUCAGGUAGGUCGCAGCACAUGGCGUCAACCCGUGUAUGCC [#1 Exclusion - Arginine A Attempt #26 (Inspired by Pi)]	nM	18.1
AGCCCUGUGCUAGAUACCAGCUACAUGAGGAUCACCCAUGUGCGUCAAGACUGACUGUGUAGCCCUUGGCAGCUACUCGCAUGUA [Exclusion - Theophylline B (Freestyle 4)]	nM	11.9
ACCUGUACGAAAAGUGCAGGACACGGAAUACGAGGACCGGUACGGCCGCCACUCGGAUAAAACCUGAGGAUCACCCUGGUCCGUG [TrypAS 14 #AlternativeMS2 #Zipper #StaticStem]	nM	27.7
CGCUGGCCACAUGAGGAUCACCCAUGUGAAGGAGCGGCGAAUAAGCCAGGUAGGUCGCGCAUGAAUAAAUCAUGUAGGUUGCGAA [XArg-A 11 V2]	nM	16.9
AAACAUGAGGAUCACCCAUGUAUGUUAUUACGAGGACCGGUACGGCCGCCACUCGAUAGAGUAGAAGUAAAUUGUAAUUCAUGUU [JR_ExcTryptoA_Sub017]	nM	19.3
CUUGGCUGUGCGGCCGCCACUGACUCAUCCUGCAUUACAUGAGGAUCACCCAUGUUGCGGCCUCCCAGGACCGGGCAUAGCCUGC [Veered]	nM	102
GCUGCACAUUCGGCCGCCACUGCUGUUACAGGAAGCUAUAGCUCACAUGAGGAUCACCCAUGUCCCAGGACCGGGAAAGUAUGGA [theeternabot_sameState_MS2_Trp_B_39]	nM	41.2
UGCCGAGACGUGGAUUACCCAUGUACAGAAGGAGCGCCCGAAAGGGCAGGUAGGUCGCUGAGGACAUGAGGAUCACCCAUGUCGA	nM	36.6
